Tested on: Pasteurella multocida
Test: Antimicrobial activity against Pasteurella multocida clinical isolate after 24 hrs by broth microdilution method
Type: functional
Could you please report measured MIC for the items listed next?
Numbers only here, please. The scale is µM.

Q: Recorded MIC of `O=C(Nc1ccc(Br)cc1)c1cc(Cl)ccc1O` , please.
A: 0.19

Q: Recorded MIC of `CC(C)[C@H](NC(=O)OCc1ccccc1)C(=O)Oc1ccc(Cl)cc1C(=O)Nc1ccc(Br)cc1` , please.
A: 0.89

###

Tested on: Bacillus cereus
Assay: Antimicrobial activity against Bacillus cereus ATCC 14579 after 24 hrs by broth microdilution method
Type: functional
Conditions: ATCC 14579, 24 h
Could you please report measured MIC for the items listed next?

Q: Recorded MIC of `COc1ccc(NC(=O)[C@@H](NC(=O)c2cc(Cl)ccc2O)C(C)C)cc1` , please.
A: > 679 µM

Q: Recorded MIC of `Cc1ccc(NC(=O)[C@H](Cc2ccccc2)NC(=O)c2cc(Cl)ccc2O)cc1` , please.
A: > 626 µM

Q: Recorded MIC of `CC(C)[C@H](NC(=O)OCc1ccccc1)C(=O)Oc1ccc(Cl)cc1C(=O)Nc1ccccc1` , please.
A: > 517 µM

Q: Recorded MIC of `O=C(Nc1ccc(Cl)c(Cl)c1)c1ccc(Cl)cc1O` , please.
A: ≤ 0.03 µM

Q: Recorded MIC of `COc1ccc(NC(=O)c2cc(Cl)ccc2O)cc1` , please.
A: > 921 µM

Q: Recorded MIC of `CC1(C)S[C@@H]2[C@H](NC(=O)[C@H](N)c3ccccc3)C(=O)N2[C@H]1C(=O)O` , please.
A: > 45.8 µM
